Please go through the items and note down their Leukemia P388 ED50.
# Test system: P388 lymphocytic leukemia cell line
# experiment: Murine P388 lymphocytic leukemia in vitro cell growth inhibition
# Assay type: cell-based
# condition_label: P388 cell line
Answers are plain numbers, in µg/mL.

Use these answered entries as a reference point.
>>> readout_number("COc1cc(/C=C\\c2ccc(OC)c(OP(=O)([O-])[O-])c2OP(=O)([O-])[O-])cc(OC)c1OC.[Zn+2].[Zn+2] [Compound 11g]")
0.0394
>>> readout_number("COc1cc(/C=C\\c2ccc(OC)c(OP(=O)([O-])[O-])c2OP(=O)([O-])[O-])cc(OC)c1OC.[Mn+2].[Mn+2] [Compound 11f]")
0.715
>>> readout_number("COc1cc(/C=C\\c2ccc(OC)c(OP(=O)([O-])[O-])c2OP(=O)([O-])[O-])cc(OC)c1OC.[K+].[K+].[K+].[K+] [Compound 11b]")
0.0170
>>> readout_number("COc1ccc(/C=C\\c2cc(OC)c(OC)c(OC)c2)c(O)c1O")
0.251

Please give Leukemia P388 ED50, item by item, for the list that follows.
1. COc1cc(CCc2ccc(OC)c(OP(=O)(O)O)c2OP(=O)(O)O)cc(OC)c1OC
2. COc1ccc(/C=C\c2cc(OC)c(OC)c(OC)c2)cc1O [Compound 3a, combretastatin A-4, reference compound]
3. COc1cc(/C=C\c2ccc(OC)c(OP(=O)([O-])[O-])c2OP(=O)([O-])[O-])cc(OC)c1OC.[Cs+].[Cs+].[Cs+].[Cs+] [Compound 11c]

A)
1. 0.335
2. 0.0003
3. 0.0365
